target: pooled human IgG (human); assay: cell-based or functional assay; also: test concentration or dose not given here
For each entry below, report its Enzyme Activity Endpoint Assay (purified): scIgG value.
Return type: number; implicit unit ng/µL.

For PRT-210 (enzyme) MEVVEVWPYGQNPNGKTEILSQTEDSESLQRLRDIEDFQAEKKKQNVVYTKWLDGVTVDDHDFRKITDGNTAYYATPLLNGRGFYDINKDFNRDSDKCAAAVAANMFHYWLDQNRDNVDRFLKQNPEKHGIIELPDGQLKLSDFLNTYESDDGYRDKSKLFDFISNNFNGPVWTDKLLDNYINGYAYNYKYGRTIEDPTKNTSKINFFKEVFNEKLLTNNHSIRNQNEFSDLLSEALYTGKAIGLSYGPAGLRHSLGHIISVWGADFDADGNVVAIYVTDSDDKKLTIGDERVGLKRYKISSDDEGRARLTAYTEKHNTGGQIRGLYTLDTGKQEWADYFDKTEQTGTDQAEQLEHHHHHH , what is its reported Enzyme Activity Endpoint Assay (purified): scIgG?
25

Please report the recorded Enzyme Activity Endpoint Assay (purified): scIgG for PRT-201 (enzyme) MEVVEVWPYGQNPNGKTEILSQTEDSESLQRLRDIEDFQAEKKKQNVVYTKWLDGVDVKDHDFRKIKDGNIEYYATPLLNGRGFYDINKDFNRDSDKCAAAVAANMFHYWLDRNRDNVDRFLRQNPEKHGIIELPDGQLKLSDFLNTYESDDGYRDKSKLFDFISNNFNGPVWTDKLLDNYINGYAYNYKYGRTIEDPTKNTSKINFFKEVFNEKILTNNHSIRNQNEFSVLLSEALYTGKAIGLSYGPAGLRHSLGHIISVWGADLDADGNVVAIYVTDSDDKKLTIGDERVGLKRYKISTDDEGRARLTAYEETHNTGGQIRGLYTLDTGKQAWADYFDKTEQTGTDQAEQLEHHHHHH .
0

So what does the record say about Enzyme Activity Endpoint Assay (purified): scIgG for PRT-224 (enzyme) MEVVEVWPYGQNPNGKTEILSQTEDSESLQRLRDIEDFQAEKKKQNVVYTKWLDGVDVKDHDFRKIVDGNIAYYATPLLNGRGFYDINKDFNRDSDKCAAAVAANMFHYWLDINRDNVDRFLRQNPEKHGIIELPDGQLKLSDFLNTYESDHGYRDKSKLFDFISNNFNGPVWTDKLLDNYINGYAYNYKYGRTIEDPTKNTSKINFFKEVFNEKILTNNHSIRNQNEFSVLLSEALYTGKAIGLSYGPAGLRHSLGHIISVWGADLDADGNVVAIYVTDSDDKKLTIGDERVGLKRYKISTDDEGRLRLTAYEETHNTGGQIRGLWTLDTGKQAWADYFDKTEQTGTDQAEQLEHHHHHH ?
314

Recorded Enzyme Activity Endpoint Assay (purified): scIgG for PRT-213 (enzyme) MEVVEVWPYGQNPNGKTEILSQTEDSESLQRLRDIEDFQAEKKKEGVVYTKWLDGVTVKDHDFRKIVDGNIEYYATPLLNGRGWYDINKDFNRDSDKCAAAVAANMFHYWLDRNRDNVDRFLKQNPEKHGIIELPDGQLKLSDFLNTYESDNGYRDKSKLFDFISKNFNGPVWTDKLLDNYINGYGYNYKYGRTIEDPTKNTSKINFFKKVFNEKILTDIHSIRNQNEFSDLLSEALYTGKAIGLSYGPAGLRHSLGHIISVWGADFDEDGNVVAIYVTDSDDKKLTIGDERVGLKRYKVSTDDEGRARLTAYTETDNTGGQVRGLYTLDTGTQAWADYFDKTEQTGTDQAEQLEHHHHHH , please?
301
